- runDescription: Inhibition of amyloid beta (1-42) aggregation at 20 uM after 48 hrs by thioflavin T fluorescence method relative to control
Reported values of inhibition for individual entries
valueType: inhibition (%)

# structureSmilesString, testResult
data = [
    ("CN(C)c1ccccc1/C=C/c1cc(O)cc(O)c1", 59.4),
    ("CNc1ccc(/C=C/c2cc(O)cc(O)c2)cc1", 63.7),
    ("Oc1cc(O)cc(/C=C/c2ccc(NC3CCCC3)cc2)c1", 68.7),
    ("CN(C)c1ccc(CCc2cc(O)cc(O)c2)cc1", 48.5),
    ("CN(C)c1cccc(/C=C/c2cc(O)cc(O)c2)c1", 61.5),
    ("Oc1cc(O)cc(/C=C/c2ccncc2)c1", 13.6),
    ("CN(C)c1ccc(/C=C/c2cc(O)cc(O)c2)cc1", 65.2),
    ("Oc1cc(O)cc(/C=C/c2ccc(Br)cc2)c1", 25.2),
    ("CCN(CC)c1ccc(/C=C/c2cc(O)cc(O)c2)cc1", 64.8),
    ("CCCNc1ccc(/C=C/c2cc(O)cc(O)c2)cc1", 66.7),
    ("CC(C)(C)c1ccc(/C=C/c2cc(O)cc(O)c2)cc1", 43.6),
    ("Oc1cc(O)cc(/C=C/c2ccc(NC3CCCCC3)cc2)c1", 65.5),
    ("CCNc1ccc(/C=C/c2cc(O)cc(O)c2)cc1", 68.6),
]

###

- runDescription: Inhibition of amyloid beta (1-42) aggregation at 20 uM after 48 hrs by thioflavin T fluorescence method relative to control
Reported values of inhibition for individual entries

# compound, measurementUnits, inhibition
records = [
    ("CCCN(CCC)c1ccc(/C=C/c2cc(O)cc(O)c2)cc1", "%", 69),
    ("CC(C)Nc1ccc(/C=C/c2cc(O)cc(O)c2)cc1", "%", 71.7),
    ("COc1cc(/C=C/c2ccc(N(C)C)cc2)cc(OC)c1", "%", 7.02),
    ("Oc1ccc(/C=C/c2cc(O)cc(O)c2)cc1 [RESVERATROL]", "%", 69.7),
]

###

- System: SH-SY5Y
- runDescription: Neuroprotective activity in human SH-SY5Y cells assessed as decrease in tertiary butylhydroperoxide-induced radical formation incubated for 24 hrs prior to tertiary butylhydroperoxide challenge measured after 30 mins by DCFH-DA staining-based fluorescence assay
- Format: functional, cell-based
valueType: Activity

# structureSmilesString, experimentalTarget, testResult
measured = [
    ("CNc1ccc(/C=C/c2cc(O)cc(O)c2)cc1", "SH-SY5Y", "Dose-dependent effect"),
    ("Oc1ccc(/C=C/c2cc(O)cc(O)c2)cc1", "SH-SY5Y", "Dose-dependent effect"),
    ("CCNc1ccc(/C=C/c2cc(O)cc(O)c2)cc1", "SH-SY5Y", "Dose-dependent effect"),
    ("CC(C)Nc1ccc(/C=C/c2cc(O)cc(O)c2)cc1", "SH-SY5Y", "Dose-dependent effect"),
]
